tested.system: human recombinant HDAC 2 (Homo sapiens, UniProt Q92769)
Sequence (Q92769 whole entry): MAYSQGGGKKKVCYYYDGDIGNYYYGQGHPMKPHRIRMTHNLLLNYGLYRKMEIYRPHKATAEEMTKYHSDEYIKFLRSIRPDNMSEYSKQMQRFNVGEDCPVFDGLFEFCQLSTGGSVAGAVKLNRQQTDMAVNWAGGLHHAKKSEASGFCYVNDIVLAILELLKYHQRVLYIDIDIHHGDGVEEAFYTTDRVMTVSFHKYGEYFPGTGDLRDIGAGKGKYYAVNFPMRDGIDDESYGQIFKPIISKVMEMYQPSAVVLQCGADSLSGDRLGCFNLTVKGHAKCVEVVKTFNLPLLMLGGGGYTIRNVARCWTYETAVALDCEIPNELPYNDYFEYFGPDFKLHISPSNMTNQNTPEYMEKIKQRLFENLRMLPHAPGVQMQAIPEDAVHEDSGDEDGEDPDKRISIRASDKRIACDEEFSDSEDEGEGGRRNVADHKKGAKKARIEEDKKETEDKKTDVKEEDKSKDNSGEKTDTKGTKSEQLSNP
protocol.details: HDAC inhibition assay (Fluor de Lys), HDAC2
recorded.conditions: inhibitor-protein incubation 2 hours, reaction 1 h 30 min, 37° C.
pIC50: −log10 of the molar value. Counter-ions that a name gives are not always drawn.
property: pIC50

• O=C(O)C(CCCc1ccccc1)CCc1ccc(NCc2ccccc2)cc1 (stereo not shown) = 4.00 to 5.00
• O=C(O)C(CCCc1cccc(S(=O)(=O)NCc2ccccc2)c1)CCc1ccccc1 (stereo not shown) = 4.00 to 5.00
• CNS(=O)(=O)c1cccc(CCCC(CCc2ccccc2)C(=O)O)c1 (stereo not shown) = 3.00 to 4.00
• O=C(O)C(CCCc1ccccc1)CCc1ccc(-c2ccccc2)cc1 (stereo not shown) = 4.00 to 5.00
• O=C(O)C(CCCc1ccccc1)SCc1ccccc1 (stereo not shown) [Example 70, Sodium 2-(benzylthio)-5-phenylpentanoate] = 3.00 to 4.00
• O=C(O)C(CCCc1ccccc1)CCc1ccc(-c2ccncc2)cc1 (stereo not shown) [Example 76, hydrochloride] = 4.00 to 5.00
• O=C(O)C(CCCc1ccccc1)CCc1ccc(Br)cc1 (stereo not shown) = 3.00 to 4.00

Reference for the values: patent US20110105544A1
